- assay procedure: plasma pharmacokinetics in patients (HPLC–MS/MS, non-compartmental analysis)
- Type: in vivo, human
- recorded conditions: human, plasma, oral, Dose-level 3: dacomitinib 15 mg QD + PD-0325901 4 mg BID; Cycle 2 Day 1; n = 2; read-out: Cmax dacomitinib, mean (CV%)
result type: Cmax
Could you write the number and then its unit?

Prompt: What Cmax value was documented for this molecule, "COc1cc2ncnc(Nc3ccc(F)c(Cl)c3)c2cc1NC(=O)/C=C/CN1CCCCC1" ?
Response: 25.7 ng/mL

---

- assay procedure: plasma pharmacokinetics in patients (HPLC–MS/MS, non-compartmental analysis)
- Type: in vivo, human
- recorded conditions: human, plasma, oral, Dose-level -1: dacomitinib 15 mg QD + PD-0325901 2 mg BID; Cycle 1 Day 1; n = 4; read-out: Cmax PD-0325901, mean (CV%)
- Description: For pharmacokinetic analyses, serial blood samples were obtained from all patients prior to treatment administration on day 1, and 1, 2, 3, 4, 6, 8, 12, 24, 72 and 144 h after the first dose. […] Transitions from m/z 480 to 329 and m/z 489 to 255 were monitored for the detection of dacomitinib and PD-0325901, respectively. Stable isotope-labelled internal standards were used for the quantification. […]
result type: Cmax (ng/mL)
Express the result in ng/mL but write the number alone.

Prompt: What Cmax value was documented for this compound, "O=C(NOC[C@H](O)CO)c1ccc(F)c(F)c1Nc1ccc(I)cc1F" ?
Response: 43.7
